Data provenance: PubChem BioAssay (NCI)

System: HOP-62 NSCLC
experiment_notes: NCI tumour cell line growth inhibition, 48 h
measured_quantity: GI50

>>> df
                                   compound    result
0  Clc1ccc(N2COOC3(OOC2)C2CC4CC(C2)CC3C4)cc1   13.9 µM
1  Cc1c(C(=O)N/N=C/c2ccc(O)cc2)nnn1-c1ccnc2c(C(F)(F)F)cccc12   17.5 µM
2  COc1ccc(C(=O)c2cc(OC)c(OC)c(OC)c2)cc1/C=C/C(=O)c1ccc(O)cc1   21.1 µM
3        CCN(Cc1ccc(F)cc1F)c1ccc(CO)c(Cl)c1   1.84 µM
4  Cc1ccc2c(/C=C/C(=O)c3cc(CN4CCOCC4)c(O)c4nc(C)ccc34)cc(CN3CCOCC3)c(O)c2n1  0.739 µM
5        Cc1c(C(=O)CCl)c(=O)n(-c2ccccc2)n1C   11.5 µM
6  COc1cccc2c(Nc3ccc(C(=O)NCCNCCO)cc3)cc(-c3ccccc3)nc12   35.4 µM
7      O=C1C(Cl)=C(Oc2ccccc2)C(=O)c2ccccc21   8.55 µM
8  Cc1ccc(C)c(-n2c(-c3ccc(Br)cc3)csc2=NC(=O)c2ccccc2F)c1  > 100 µM
9  CC1=C(C(=O)Nc2ccc(F)c(Cl)c2)C(c2cccc(O)c2)NC(=S)N1 (stereo not given)   > 50 µM

----------
Test system: SNB-75 CNS
experiment_notes: NCI tumour cell line growth inhibition, 48 h

compound	target_system	GI50
Cn1cc(-c2nc(-c3c[nH]c4ncccc34)cs2)c2cc(Cl)ccc21	SNB-75 CNS	3.52 µM
CCNCCNc1cc(-c2ccc(Cl)cc2)c(C#N)c2nc3ccccc3n12	SNB-75 CNS	1.33 µM
Cc1c(C(=O)CCl)c(=O)n(-c2ccccc2)n1C	SNB-75 CNS	10.9 µM
C=C1C(=O)O[C@H]2[C@H]1CC/C(COC(=O)/C=C/c1cccnc1)=C\CC[C@@]1(C)O[C@@H]21	SNB-75 CNS	11.3 µM
CC(C)(C)[Si](C)(C)OC1[C@@H](O[Si](C)(C)C(C)(C)C)[C@@H](CNC(=O)NC(=O)NC(=O)CI)O[C@H]1n1cnc2c(NC(=O)Nc3ccccc3)ncnc21 (stereo not given in full)	SNB-75 CNS	0.651 µM

----------
TGI overview
System: NCI-H226 lung
experiment_notes: NCI tumour cell line growth inhibition, 48 h
measured_quantity: TGI

In [3]: df
Out[3]:
                                    compound  measured_quantity     result
 0                  CC(C)(C)C(=O)Nc1ccccc1Br                TGI   > 100 µM
 1     COc1cccc(/C=C\c2cc(OC)c(OC)c(OC)c2)c1                TGI    83.9 µM
 2  CCCCC1=C(C(=O)N2CCOCC2)C2(OCCO2)C1Cl (stereo not drawn)                TGI   > 100 µM
 3  CN(C)c1ccc(/C=C(\NC(=O)c2ccccc2)c2nc3ccccc3c(=O)o2)cc1                TGI   > 100 µM
 4        CCN(Cc1ccc(F)cc1F)c1ccc(CO)c(Cl)c1                TGI   0.219 µM
 5  CCC(C)C1=C(O)[N+]2([O-])Oc3ccc(-c4c(O)c(O)c(-c5ccc(O)cc5)c(OC(C)=O)c4OC(C)=O)cc3OC2(C(C)CC)C(=O)N1O (stereo not drawn)                TGI    > 50 µM
 6  O=C1C2c3[nH]c4ccccc4c3C3CCSCC3C2C(=O)N1c1ccccc1 (stereo not drawn)                TGI   > 100 µM
 7  CC[N+](C)(C)c1ccc(C(=C2C=CC(=[N+](C)C)C=C2)c2ccc(N(C)C)cc2)cc1                TGI    52.8 µM
 8   O=c1oc2ccccc2cc1-c1ccc([N+](=O)[O-])cc1                TGI   > 100 µM
 9    CN(OC(=O)CC(=O)c1ccccc1)C(=O)Cc1ccccc1                TGI   > 100 µM
10  COc1ccc2c(c1OC)C(Br)CCC(Br)(Br)C2=O (stereo not drawn)                TGI    30.1 µM
11  C=C1C(=O)OC2C1C(OC(=O)/C(C)=C/C)CC(O)(CCl)C1C(OC(C)=O)C=C(C)C21O (stereo not drawn)                TGI  > 61.3 µM
12  O=[N+]([O-])/C(C(Cl)=C(Cl)Cl)=C(\Nc1cccc2cccnc12)Sc1ccccc1                TGI    86.6 µM
13         O=c1[nH]nc(Cc2ccccc2)n1N=C1CCCCC1                TGI   > 100 µM
14  COC(=O)C1Cc2c(n(C)c3ccccc23)C(c2ccccc2)N1 (stereo not drawn)                TGI   > 100 µM
15           c1ccc(Oc2c3ccccc3nc3ccccc23)cc1                TGI    27.1 µM
16    CCOC(=O)NC(OCCN(C)C)(C(F)(F)F)C(F)(F)F                TGI   > 100 µM
17  COC(=O)C/C(C)=C/[C@@H](O)[C@H]1O[C@@H]2CC/C(Cl)=C/C/C=C(/C)[C@H](OC(C)=O)CC(=O)O[C@@H]1C2                TGI    11.8 µM
